Biological target: T1, EsCas13d, nuclease-dead (Eubacterium siraeum, UniProt B0MS50, R295A;H300A;R849A;H854A)
T1 sequence: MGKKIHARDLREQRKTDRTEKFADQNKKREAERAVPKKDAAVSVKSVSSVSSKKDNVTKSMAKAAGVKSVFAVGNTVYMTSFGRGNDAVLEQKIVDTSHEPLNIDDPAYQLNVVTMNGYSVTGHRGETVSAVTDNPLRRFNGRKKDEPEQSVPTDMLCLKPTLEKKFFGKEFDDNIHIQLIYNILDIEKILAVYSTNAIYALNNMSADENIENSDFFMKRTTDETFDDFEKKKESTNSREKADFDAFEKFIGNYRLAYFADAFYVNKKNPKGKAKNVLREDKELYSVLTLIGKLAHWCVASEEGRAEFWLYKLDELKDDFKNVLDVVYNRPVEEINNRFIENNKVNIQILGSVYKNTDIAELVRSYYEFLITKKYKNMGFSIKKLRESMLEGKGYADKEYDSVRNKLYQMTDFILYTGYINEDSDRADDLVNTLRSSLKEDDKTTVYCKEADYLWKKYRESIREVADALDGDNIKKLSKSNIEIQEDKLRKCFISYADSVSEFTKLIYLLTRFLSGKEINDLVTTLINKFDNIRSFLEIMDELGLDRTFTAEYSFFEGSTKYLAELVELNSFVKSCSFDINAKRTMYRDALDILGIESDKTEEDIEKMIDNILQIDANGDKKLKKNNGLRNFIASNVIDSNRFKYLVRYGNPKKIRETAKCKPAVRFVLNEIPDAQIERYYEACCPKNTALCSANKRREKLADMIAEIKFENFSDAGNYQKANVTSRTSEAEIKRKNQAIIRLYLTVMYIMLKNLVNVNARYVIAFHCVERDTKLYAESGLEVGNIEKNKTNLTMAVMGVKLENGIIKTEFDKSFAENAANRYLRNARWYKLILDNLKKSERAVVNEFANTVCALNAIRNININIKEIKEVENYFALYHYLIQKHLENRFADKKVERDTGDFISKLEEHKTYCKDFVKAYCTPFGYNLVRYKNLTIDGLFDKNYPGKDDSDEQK
Experiment: crRNA (strand 1, pre-loaded); Mg2+; 40 mM Tris-HCl pH 7.5, 150 mM NaCl, 6 mM MgCl2, 1 mM DTT, 0.1% Tween-20, 0.2 mg/ml BSA; 25 C; 10 min per concentration, then washed
Conditions: tags: His6-TwinStrep-SUMO cleaved; N-terminal SNAP kept (SNAP-Surface 488); label: 3' end held by stalled T7 RNA polymerase
pKd: −log10 of the molar value.

BINDER	pKd
target 3 U21G,U22A (mixed) RNA 1: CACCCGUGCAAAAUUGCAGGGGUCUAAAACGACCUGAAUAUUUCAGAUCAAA RNA 2: GGGAAUGGAUCCACAUCUACGAAUUCGUUAGUGAUCUGAAAUAUUCAGGUCUGCAGAUCGGAAGAGCACACGU	7.24
target 1 insU 3' of 17,insC 3' of 8 (mixed) RNA 1: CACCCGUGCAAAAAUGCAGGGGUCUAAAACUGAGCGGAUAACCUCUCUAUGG RNA 2: GGGAAUGGAUCCACAUCUACGAAUUCGUACCAUAGUAGAGGUUAUCCCGCUCACCGAGAUCGGAAGAGCACACGU	7.36
target 1 insU 3' of 7,insA 3' of 3 (mixed) RNA 1: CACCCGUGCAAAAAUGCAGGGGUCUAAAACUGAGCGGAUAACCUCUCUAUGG RNA 2: GGGAAUGGAUCCACAUCUACGAAUUCGUACCAUAGAGAGGUUAUCUCGCUACACCGAGAUCGGAAGAGCACACGU	7.69
target 1 insA 3' of 12,insU 3' of 6 (mixed) RNA 1: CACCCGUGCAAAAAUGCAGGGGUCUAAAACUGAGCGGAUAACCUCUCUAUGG RNA 2: GGGAAUGGAUCCACAUCUACGAAUUCGUACCAUAGAGAGGAUUAUCCUGCUCACCGAGAUCGGAAGAGCACACGU	7.19

Where these numbers come from: paper PMC10786891
